meta.source: patent US12239654B2

Test: Pharmacokinetics of MRS4322 following intravenous administration to neonatal pigs
Format: in vivo
Settings: female, pig, plasma, iv, 0.2 mg/kg, plasma, MRS4322 0.2 mg/kg IV, mean, read-out: C0 Mean
Observable: C0 (ng/mL)
Please reply with the bare figure in ng/mL and do not write the unit itself.

**Q:** I'd like to know its C0. The compound in question is CSc1nc(N)c2ncn([C@H]3[C@H](O)[C@H](O)[C@]4(CO)C[C@H]34)c2n1
**A:** 248

* * *

Assay: Pharmacokinetics of MRS4322 following intravenous administration to neonatal pigs
Assay type: in vivo
Conditions: female, pig, cerebrospinal fluid, iv, 0.2 mg/kg, CSF, MRS4322 0.2 mg/kg IV, 6 h, individual subjects, read-out: Cerebro-Spinal Fluid Concentration by Subject
Observable: concentration at 6 h

**Q:** Please look up its concentration at 6 h: CSc1nc(N)c2ncn([C@H]3[C@H](O)[C@H](O)[C@]4(CO)C[C@H]34)c2n1
**A:** 1.37 ng/mL

* * *

Test: Pharmacokinetics of MRS4322 following intravenous administration to neonatal pigs
Format: in vivo
Conditions: female, pig, brain extracellular fluid, iv, 0.2 mg/kg, brain ECF, MRS4322 0.2 mg/kg IV, 6 h, mean, read-out: Extracellular Fluid Concentration Mean
Observable: concentration at 6 h (ng/mL)
Answer format: numeric, ng/mL implied, no suffix.

**Q:** Reported concentration at 6 h, compound CSc1nc(N)c2ncn([C@H]3[C@H](O)[C@H](O)[C@]4(CO)C[C@H]34)c2n1 : ____
**A:** 0.714

* * *

Assay: Pharmacokinetics of MRS4322 following intraperitoneal administration of MRS2365 to mice
Format: in vivo
Settings: female, C57BL/6J, mouse; MRS4322 after MRS2365 ip to mice; based on mean Cmax concentrations in plasma and brain; read-out: brain/plasma ratio of total drug
Observable: Kp

**Q:** What measured Kp goes with CSc1nc(N)c2ncn([C@H]3[C@H](O)[C@H](O)[C@]4(CO)C[C@H]34)c2n1 ?
**A:** ~0.1

* * *

Test: Plasma binding determination by plasma ultrafiltration, neonatal pig
Assay type: in vitro ADME
Conditions: female, 37° C., read-out: % Bound Mean (converted)
Observable: fraction unbound at 60 min, 1 uM
Please respond with just the number, no unit label.

**Q:** Reported fraction unbound at 60 min, 1 uM for CSc1nc(N)c2ncn([C@H]3[C@H](O)[C@H](O)[C@]4(CO)C[C@H]34)c2n1 : what is it?
**A:** 0.784
